The following molecules are shown together with reported Percent Effect values.
- experimental-system: Aspartate--tRNA(Asp/Asn) ligase (Mycobacterium tuberculosis (strain ATCC 25618 / H37Rv))
- Sequence (whole entry): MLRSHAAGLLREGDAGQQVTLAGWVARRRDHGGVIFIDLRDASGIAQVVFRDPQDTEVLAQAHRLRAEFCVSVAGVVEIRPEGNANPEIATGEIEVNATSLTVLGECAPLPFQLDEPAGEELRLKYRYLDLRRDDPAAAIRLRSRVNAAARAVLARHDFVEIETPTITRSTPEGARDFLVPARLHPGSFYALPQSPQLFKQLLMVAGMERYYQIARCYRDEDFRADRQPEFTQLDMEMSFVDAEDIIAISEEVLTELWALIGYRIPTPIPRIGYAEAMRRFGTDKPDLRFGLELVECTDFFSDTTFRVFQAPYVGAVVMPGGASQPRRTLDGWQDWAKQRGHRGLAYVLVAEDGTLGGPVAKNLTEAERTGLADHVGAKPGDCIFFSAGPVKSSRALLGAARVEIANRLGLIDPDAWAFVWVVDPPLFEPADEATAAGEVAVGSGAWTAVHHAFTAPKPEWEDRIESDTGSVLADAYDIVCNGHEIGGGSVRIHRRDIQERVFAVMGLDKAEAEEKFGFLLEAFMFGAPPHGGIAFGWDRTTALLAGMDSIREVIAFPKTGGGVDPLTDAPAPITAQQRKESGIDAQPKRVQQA
- assay-notes: Assay for Asp RNA synthetase-1 from Mycobacterium tuberculosis
- Format: functional
- Parameters: scale not given: in the data most compounds retested in dose-response had high values
- measurement-setup: 30 µM
# output: numeric value plus its unit

Worked cases, Percent Effect given:
>  <molecule>
NC[C@H]1CC[C@H](C(NC(=O)c2ccccn2)c2ccccn2)CC1 (stereo not given in full)

>  <recorded-measurement>
1.43%

$$$$
>  <molecule>
CCc1ccc(-n2c(=O)[nH]c3nc(N4CCSCC4)ncc3c2=O)cc1

>  <recorded-measurement>
15.3%

$$$$
>  <molecule>
CCc1cnc(CNc2ccc(C(=O)N3CCCC(C)C3)cc2C)o1 (stereo not given)

>  <recorded-measurement>
-5.74%

$$$$
>  <molecule>
CC(=O)Nc1c(C)cnn1Cc1cc(F)ccc1F

>  <recorded-measurement>
2.1%

$$$$
>  <molecule>
CCc1nc(C2CCCN2C(=O)c2cc(C3CC3)[nH]n2)no1 (stereo not given)

>  <recorded-measurement>
-7.78%

$$$$

Dear colleague, I am looking for the recorded Percent Effect of the following molecule: Cc1ccc(C(=O)N2CCC3(CC2)CC(N2CCCC2)C3)cc1
0.137%

Dear colleague, I am looking for the recorded Percent Effect of the following molecule: CC(=O)N1CCCN(C(=O)c2cnc3n[nH]c(C)c3c2)CC1
-0.871%

Dear colleague, I am looking for the recorded Percent Effect of the following molecule: Nc1ncc2c(n1)CN(C1CCCC1)C2=O
6.87%

Dear colleague, I am looking for the recorded Percent Effect of the following molecule: CN(CC(F)(F)F)C(=O)C1CSCN1C(=O)OC(C)(C)C (stereo not given)
2.82%

Dear colleague, I am looking for the recorded Percent Effect of the following molecule: COCCN1C[C@@H]2CN(C(=O)[C@H]3CCCO3)C[C@@H]2C1=O
-1.41%

Dear colleague, I am looking for the recorded Percent Effect of the following molecule: CC(C)c1nc(C2CCCN2CC(=O)Nc2ccc(Cl)cn2)no1 (stereo not given)
-6.33%

Dear colleague, I am looking for the recorded Percent Effect of the following molecule: CN1CC(=O)N(c2ccccc2)CC12CCN(CC1CC1)C2 (stereo not given)
3.68%

Dear colleague, I am looking for the recorded Percent Effect of the following molecule: O=C(NCc1cccs1)[C@H]1CC[C@@H]2[C@@H](CCN2c2ncccn2)O1
3.22%

Dear colleague, I am looking for the recorded Percent Effect of the following molecule: Cn1cc(CN2CC[C@H](O)[C@@H]2Cc2ccncc2)cn1
-1.6%

Dear colleague, I am looking for the recorded Percent Effect of the following molecule: Cc1noc(C(C)N2CCN(CCC(=O)N3CCCCC3)CC2)n1 (stereo not given)
-2.64%

Dear colleague, I am looking for the recorded Percent Effect of the following molecule: CN(CCc1ccccn1)S(=O)(=O)N1CCCC1c1ccco1 (stereo not given)
2.3%

Dear colleague, I am looking for the recorded Percent Effect of the following molecule: COc1ccc(CCNC(=O)NC2CCCC2)cc1OC
2.58%

Dear colleague, I am looking for the recorded Percent Effect of the following molecule: COc1ccc(OCCCN2CCOC(Cn3cccn3)C2)cc1 (stereo not given)
-0.393%

Dear colleague, I am looking for the recorded Percent Effect of the following molecule: CN(C)CC1CN(c2cnc3ccccc3n2)CCO1 (stereo not given)
-3.4%

Dear colleague, I am looking for the recorded Percent Effect of the following molecule: Cc1cnccc1N1CCCN(C(=O)CCCc2cn[nH]c2)CC1
-0.632%
